Parameter: TGI. Scope: all listed entries.
- Tested on: HCC-2998 colon
- protocolSummary: NCI tumour cell line growth inhibition, 48 h

Reference set, count: 3
COC12OCCN(C)C1=CC(=O)C1=NNC(C)C12 (stereo not drawn) ... > 100 µM
C=CN1C(=O)[C@H](Oc2ccccc2)[C@@H]1c1ccccc1 ... > 100 µM
CN(C)CCC(=O)C(=Cc1ccc(O)cc1)C(=O)CCN(C)C ... > 100 µM

TGI lookup needed for CC1(Br)Cc2ccccc2C1=O (stereo not drawn) , thanks.
> 100 µM

Also check Cc1ccc2c(C3C(C#N)=C(N)Oc4cc5ccccc5cc43)cc(=O)oc2c1 (stereo not drawn)
58.6 µM

Also check O=C1CCC/C=C\C[C@H]2C=CC(=O)/C2=C/C[C@H](C/C=C\CC(F)(F)F)O1
0.733 µM

Also check CN(C)C(=O)/C=C/c1c[nH]c(=O)[nH]c1=O
> 500 µM

Also check COc1ccc(-c2cc(/C=C/C(=O)c3ccc(OC)c(OC)c3)[nH]n2)cc1
3.97 µM

Also check COc1ccc2c(C(=O)c3cn(CCN4CCOCC4)c4ccccc34)cccc2c1
> 100 µM

Also check CCc1nc(N)nc(N)c1-c1ccc([N+](C)(C)C)cc1
> 100 µM

Also check C(=C\c1ccc(-c2cn3cc(/C=C/C=N/NC4=NCCN4)ccc3n2)cc1)/C=N/NC1=NCCN1
2.6 µM

Also check Cn1c(Nc2ccc(C(F)(F)F)cc2)nc2cc(Oc3ccnc(-c4ncc(C(F)(F)F)[nH]4)c3)ccc21
13.1 µM

Also check CC(C)(C)[Si](C)(C)OC1C(=O)C[C@H]2CCCC[C@@H]12 (stereo partly drawn)
> 100 µM

---

- Test system: HT29 colon
- protocolSummary: NCI tumour cell line growth inhibition, 48 h
propertyName: TGI

Reference set, count: 2
CC(=O)OCC1OC(n2c(C)cc(C)c(C#N)c2=S)C(OC(C)=O)C(OC(C)=O)C1OC(C)=O (stereo not drawn) ... > 100 µM
CC(C)(C)OC/C=C(/CO)[C@@H]1C=C[C@H](O)C1 ... > 100 µM

Kindly review the next compound as well.
TGI lookup needed for COc1cc2c(cc1OC)C1C[C@]3(CCN1CC2)C(=O)N(c1ccccc1)C(=O)N3C(C)=O (stereo partly drawn) , thanks.
> 200 µM

---

- Test system: CAKI-1 renal
- protocolSummary: NCI tumour cell line growth inhibition, 48 h; in the data active = GI50 below about 0.43 µM; inactive = the rest
Form entry, call: pick from active, inactive

Reference set (8 entries):
COc1cccc2c1C(=O)c1c(O)c3c(c(O)c1C2=O)C[C@@](O)(/C(C)=N/NC(=O)c1ccc(Cl)cc1)C[C@@H]3OC1CC(N)C(O)C(C)O1 (stereo partly specified) ... inactive
Nc1c(C(=O)c2ccccc2)cnn1-c1ccc(F)cc1 ... inactive
Clc1nc(Cl)nc(Nc2cccc3ccccc23)n1 ... inactive
CCOC(=O)c1c(-c2ccc(OC)cc2)c(C#N)c2c(C#N)c(N)nn2c1N ... inactive
O=[N+]([O-])c1cccc2ccc(N/N=C/c3ccccc3O)nc12 ... inactive
Nc1ccn(C2OC(CO)C(O)C2O)c(=O)n1 (stereo unspecified) ... active
CC(C(=O)O)c1cccc(Oc2ccccc2)c1 (stereo unspecified) ... inactive
CC1(C)N=C(N)N=C(N)N1c1ccc(CCCCc2ccc(Cl)c(S(=O)(=O)F)c2)c(Cl)c1 ... inactive

Assay result, entry O=S(=O)(Nc1ccc(Cl)cc1Cl)c1ccc(-c2cnc(C3CC3)o2)cc1 — outcome?
inactive

Also check COC(=O)c1ccc2c(c1)/C(=C\c1cc(Br)c(O)c(Br)c1)C(=O)N2
inactive

Also check COc1ccc(C2=C(c3ccc(OC)cc3)C(=O)N3CCCC3C2)cc1 (stereo unspecified)
inactive

---

- System: K-562 leukemia
- protocolSummary: NCI tumour cell line growth inhibition, 48 h
propertyName: TGI

CC(C)=CCc1cc2c(cc1O)OC[C@H]1c3cc4c(cc3O[C@@H]21)OCO4 ... > 100 µM

Find TGI (K-562 leukemia) for the entry O=c1nc(N2CCNCC2)oc2cc(Cl)oc(=O)c12
> 27.4 µM

Also check CS(=O)(=O)Nc1cc(-c2ccc3ncnc(Nc4c(Cl)ccc5c4OCO5)c3c2)cnc1Cl
> 48.4 µM

---

- Tested on: ACHN renal
- protocolSummary: NCI tumour cell line growth inhibition, 48 h
Parameter: TGI. Scope: all listed entries.

COC(=O)c1cc2c(s1)-c1nccc3c1c(nc1ccccc13)C2=O ... > 100 µM
Cc1cc(C(F)(F)F)cc(-n2nc(NS(=O)(=O)c3cc(C)c(Cl)cc3S)nc2N)n1 ... > 100 µM

Find TGI (ACHN renal) for the entry CN(C)CCSc1cc(-c2ccccc2)c2ccccc2n1
26.7 µM

---

- Tested on: SNB-19 CNS
- protocolSummary: NCI tumour cell line growth inhibition, 48 h
Parameter: TGI. Scope: all listed entries.

CCOC(=O)C1SC(=Nc2ccccc2)N=C1C (configuration not stated) ... > 100 µM
Cc1ccc(Nc2oc(-c3ccccc3)nc2[P+](c2ccccc2)(c2ccccc2)c2ccccc2)cc1 ... 2.94 µM
CN(C)c1ccc(N=Nc2ccccn2)c(O)c1 ... > 100 µM
CC(=O)OCC1OC(OC2CC3C(C)(C)C(O)CC[C@]3(C)C3CCC45CC4(CCC5[C@@H](C)CC(O)C(O)C(C)(C)O)[C@]23C)C(O)C(O)C1O (some centres not stated) ... > 10 µM
CC(Oc1ccc(OCC2CCCCC2)cc1)C(=O)OCC(=O)c1ccc(-c2ccccc2)cc1 (configuration not stated) ... > 100 µM
COc1ccc(-c2nsc3c2NC(=O)CC3c2cccc(OC)c2)cc1 (configuration not stated) ... > 100 µM

TGI lookup needed for O=C(Nc1ccc(Cl)c(C(F)(F)F)c1)c1ccc(NC2=C(Cl)C(=O)N(Cc3ccccc3)C2=O)cc1 , thanks.
> 100 µM

---

- Tested on: MALME-3M melanoma
- protocolSummary: NCI tumour cell line growth inhibition, 48 h; in the data active = GI50 below about 0.43 µM; inactive = the rest
Form entry, call: pick from active, inactive

Reference set (3 entries):
COc1ccccc1Nc1ncc(-c2ccccc2)o1 ... inactive
Nc1ccn(C2OC(CO)C(O)C2O)c(=O)n1 (centres undefined) ... active
O=C1c2cc3c(cc2-c2c1c1cc(Cl)c(Cl)cc1c(=O)n2C[C@H](O)CO)OCO3 ... active

Could you now look at the following compound, please?
Assay result, entry CN(C)C(=S)Sc1ccc([N+](=O)[O-])cc1[N+](=O)[O-] — outcome?
inactive

---

- Tested on: UACC-62 melanoma
- protocolSummary: NCI tumour cell line growth inhibition, 48 h
Parameter: TGI. Scope: all listed entries.
Give just the number in µM; leave the unit off.

CCCCC/C=C1\CCC(CN(C)C)C1=O (centres undefined) ... 29.4
O=P1(c2ccccc2)Nc2ccccc2SSc2ccccc2N1 ... 29.8

Kindly review the next molecule as well.
Find TGI (UACC-62 melanoma) for the entry COC(=O)C1=CN(CC2=CC(=O)C(C)=CC2=O)C=C(C(=O)OC)C1c1cccc(OC)c1
29.4

---

- Tested on: SF-268 CNS
- protocolSummary: NCI tumour cell line growth inhibition, 48 h
Parameter: TGI. Scope: all listed entries.

Reference set, count: 2
CN(C)C(=O)/C=C/c1c[nH]c(=O)[nH]c1=O ... > 500 µM
CC1CCN(C(=O)OCc2nc3nc(Cl)nc(N4CCOCC4)c3[nH]2)CC1 ... 2.84 µM

Kindly review the next compound as well.
TGI lookup needed for CC1CN=C(N(C(=O)Nc2ccccc2)c2ccc(Cl)c(Cl)c2)S1 (stereo not drawn) , thanks.
> 100 µM

---

- System: HCT-15 colon
- protocolSummary: NCI tumour cell line growth inhibition, 48 h
propertyName: TGI (µM)
Give just the number in µM; leave the unit off.

Reference set, count: 3
CC(=O)N1CCC(=O)/C(=C/c2ccccc2)C1 ... 48.2
CNCCCn1c2ccccc2c2c3c(c(-c4ccsc4)cc21)C(=O)NC3=O ... 2.74
CC1(C)OC[C@@H]([C@H](O)C2C=CC(=O)S2)O1 (stereo partly drawn) ... 35.5

TGI lookup needed for COC(=O)C1=C(C(=O)OC)C2=S(SC3=C2CCCC3)S1 (stereo not drawn) , thanks.
46.6

Also check COC(=O)c1ccc(-c2c(C#N)[n+](=O)c3cc(Cl)c(Cl)cc3n2[O-])cc1
91.2

Also check O=C(Nc1ccc([N+](=O)[O-])cc1[N+](=O)[O-])C(=O)C(C(=O)c1ccc2ccccc2c1)C1OC(=O)c2ccccc21 (stereo not drawn)
30.7

---

- Test system: LOX IMVI melanoma
- protocolSummary: NCI tumour cell line growth inhibition, 48 h; in the data active means GI50 below about 0.43 µM; inactive means the rest
Form entry, call: pick from active, inactive

Reference set (2 entries):
O=C(Nc1cc(C(F)(F)F)ccc1Cl)c1cccc(NC2=C(Cl)C(=O)N(Cc3ccccc3)C2=O)c1 ... inactive
NCCCn1c2c(c3ccc([N+](=O)[O-])cc3c1=O)C(=O)c1ccccc1-2 ... active

Assay result, entry COc1cc(/C=C\c2cc(OC)c(OC)c(OC)c2)cc(N/C=C\C(=O)c2cc(OC)c(OC)c(OC)c2)c1OC — outcome?
inactive
